// data source = paper PMC10244618

B1: NF2 (merlin) isoform 7, human, full length (507 aa, lacks exons 2-3 = isoform-1 residues 39-121; exon-16 C-terminus), P35240-4 (parent)
chain: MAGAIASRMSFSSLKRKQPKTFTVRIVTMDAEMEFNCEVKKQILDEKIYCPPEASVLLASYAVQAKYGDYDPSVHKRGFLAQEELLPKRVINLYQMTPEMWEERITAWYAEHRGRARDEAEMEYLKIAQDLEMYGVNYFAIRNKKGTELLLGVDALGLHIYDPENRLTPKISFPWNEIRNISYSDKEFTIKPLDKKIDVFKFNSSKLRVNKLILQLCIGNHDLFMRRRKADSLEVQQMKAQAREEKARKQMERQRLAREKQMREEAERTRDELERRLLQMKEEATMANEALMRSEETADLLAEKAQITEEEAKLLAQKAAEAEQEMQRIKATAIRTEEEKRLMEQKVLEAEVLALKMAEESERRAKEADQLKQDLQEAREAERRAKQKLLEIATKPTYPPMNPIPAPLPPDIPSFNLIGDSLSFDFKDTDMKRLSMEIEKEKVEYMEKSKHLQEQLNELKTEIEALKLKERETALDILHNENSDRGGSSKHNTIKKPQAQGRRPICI

- Variants of: B1
- assay_overview: reverse yeast two-hybrid deep mutational scan (rY2H-seq): NF2 isoform 7 mutant library as bait mated with wild-type prey strains; selection on medium lacking adenine for non-interacting pairs; NextSeq paired-end sequencing; enrichment vs …
- details: with NF2 C-terminal domain (wild type; homomeric NF2-NF2 interaction), P35240; yeast diploids after mating (RBait_S3 x RPrey_S3), 30 °C, selection for reporter genes on NB agar; human ABL2 co-expressed as the kinase-dead K35M mutant …; HIGHER = WEAKER BINDING (the opposite of display enrichments): higher = stronger loss of interaction: reverse Y2H selects yeast in which bait and prey do NOT interact (growth without adenine), so a …; hits-only table; partner unresolved; scale: rY2H score; numbering: uniprot, sequence starts at 1
Kindly supply the reported enrichment values for the records listed here.
One number for each entry.

| mutations | measurement_label | recorded_measurement |
| --- | --- | --- |
| M133E | enrichment | 2.45 |
| Q82A | enrichment | 2.07 |

QUERY: Please report the recorded enrichment for V347E .
RESULT: 2.41
